This collection of values is drawn from patent US20240246934A1.

# AUC(0-inf) per record follows
experiment: Pharmacokinetics in SD rats, single intravenous injection and oral administration; format: in vivo, SD rat; conditions: SD, rat, whole blood, IV 3 mg/kg
Value expressed in ng·h/mL; do not type the unit.

| Structure smiles | Output unit | Recorded number |
| --- | --- | --- |
| CCCOc1c(NC(=O)/C=C/[C@H]2CCCN2C)ccc2ncnc(Nc3ccc(OCc4ccccn4)c(Cl)c3)c12 | ng·h/mL | 964 |
| COCCCOc1c(NC(=O)/C=C/[C@H]2CCCN2C)ccc2ncnc(Nc3ccc(OCc4ccccn4)c(Cl)c3)c12 | ng·h/mL | 955 |

Please examine the following record next.
## Input Identify the reported AUC(0-inf) for the following entry. COc1c(NC(=O)/C=C/[C@H]2CCCN2C(C)C)ccc2ncnc(Nc3ccc(OCc4ccccn4)c(Cl)c3)c12
## Output 1550

###

Assay: Pharmacokinetics in SD rats, single intravenous injection and oral administration
Assay type: in vivo, SD rat
Settings: IV 3 mg/kg
Procedure: In this assay, the pharmacokinetic characteristics of the compounds of the present application were assayed after administration of some of the compounds of the present application to SD rats by single oral administration and intravenous injection. 1. […] The mixture was stirred, vortexed and/or sonicated. […] The supernatant was diluted 2-fold with ultra-pure water, and the samples were analyzed by LC/MS. Pharmacokinetic parameters was calculated using WinNonlin software. […]
Hi! Could you tag entries with Cl_obs below 30 mL/min/kg as fulfilled, and those at or above as not fulfilled? Much appreciated.

Solved cases (3 shown):
| Compound | Label value |
| --- | --- |
| CN1CCC[C@H]1/C=C/C(=O)Nc1ccc2ncnc(Nc3ccc(OCc4ccccn4)c(Cl)c3)c2c1 [Control compound 2, reference compound] | not fulfilled |
| CCOc1cc2ncc(C#N)c(Nc3ccc(OCc4ccccn4)c(Cl)c3)c2cc1NC(=O)/C=C/[C@H]1CCCN1C [PYROTINIB, pyrotinib, reference compound] | fulfilled |
| CCN1CCC[C@@H]1/C=C/C(=O)Nc1ccc2ncnc(Nc3ccc(OCc4ccccn4)c(Cl)c3)c2c1OC | not fulfilled |

## Input Does the reported Cl_obs of CCCOc1c(NC(=O)/C=C/[C@H]2CCCN2C)ccc2ncnc(Nc3ccc(OCc4ccccn4)c(Cl)c3)c12 stay below 30 mL/min/kg?
## Output not fulfilled

## Input Does the reported Cl_obs of CCOc1cc2ncc(C#N)c(Nc3ccc(OCc4ccccn4)c(Cl)c3)c2cc1NC(=O)/C=C/CN(C)C [NERATINIB, neratinib, reference compound] stay below 30 mL/min/kg?
## Output fulfilled

## Input Does the reported Cl_obs of COc1c(NC(=O)/C=C/[C@H]2CCCN2C(C)C)ccc2ncnc(Nc3ccc(OCc4ccccn4)c(Cl)c3)c12 stay below 30 mL/min/kg?
## Output not fulfilled

###

test: Pharmacokinetics in SD rats, single intravenous injection and oral administration; assay type: in vivo, SD rat; conditions: SD, rat, whole blood, IV 3 mg/kg
Hi! Could you tag entries with AUC(0-inf) below 900 ng·h/mL as met, and those at or above as not met? Much appreciated.

| Molecule | Label value |
| --- | --- |
| CN1CCC[C@H]1/C=C/C(=O)Nc1ccc2ncnc(Nc3ccc(OCc4ccccn4)c(Cl)c3)c2c1 [Control compound 2, reference compound] | met |
| CN1CCC[C@@H]1/C=C/C(=O)Nc1ccc2ncnc(Nc3ccc(OCc4ccccn4)c(Cl)c3)c2c1 [Control compound 1, reference compound] | met |

## Input Does the reported AUC(0-inf) of COc1c(NC(=O)/C=C/[C@H]2CCCN2C)ccc2ncnc(Nc3ccc(OCc4ccccn4)c(Cl)c3)c12 [Example 4] stay below 900 ng·h/mL?
## Output not met

## Input Does the reported AUC(0-inf) of CCN1CCC[C@@H]1/C=C/C(=O)Nc1ccc2ncnc(Nc3ccc(OCc4ccccn4)c(Cl)c3)c2c1OC [Example 29] stay below 900 ng·h/mL?
## Output not met

## Input Does the reported AUC(0-inf) of CCOc1cc2ncc(C#N)c(Nc3ccc(OCc4ccccn4)c(Cl)c3)c2cc1NC(=O)/C=C/CN(C)C [NERATINIB, neratinib, reference compound] stay below 900 ng·h/mL?
## Output not met

## Input Does the reported AUC(0-inf) of CCOc1cc2ncc(C#N)c(Nc3ccc(OCc4ccccn4)c(Cl)c3)c2cc1NC(=O)/C=C/[C@H]1CCCN1C [PYROTINIB, pyrotinib, reference compound] stay below 900 ng·h/mL?
## Output not met

###

# Tmax per record follows
experiment: Pharmacokinetics in SD rats, single intravenous injection and oral administration; type: in vivo, SD rat; details: SD, rat, whole blood, PO 10 mg/kg, NA: Exposure was too low to be counted
Value expressed in h; do not type the unit.

Consider the worked cases shown below.
| Structure smiles | Tmax, h |
| --- | --- |
| COc1c(NC(=O)/C=C/[C@H]2CCCN2C)ccc2ncnc(Nc3ccc(OCc4ccccn4)c(Cl)c3)c12 | 5.33 |
| CCN1CCC[C@@H]1/C=C/C(=O)Nc1ccc2ncnc(Nc3ccc(OCc4ccccn4)c(Cl)c3)c2c1OC | 3.33 |
| CCCOc1c(NC(=O)/C=C/[C@H]2CCCN2C)ccc2ncnc(Nc3ccc(OCc4ccccn4)c(Cl)c3)c12 | 2 |

Please examine the following record next.
## Input Identify the reported Tmax for the following entry. COCCCOc1c(NC(=O)/C=C/[C@H]2CCCN2C)ccc2ncnc(Nc3ccc(OCc4ccccn4)c(Cl)c3)c12
## Output 5

###

# Cmax per record follows
assay: Pharmacokinetics in SD rats, single intravenous injection and oral administration; type: in vivo, SD rat; conditions: SD, rat, whole blood, PO 10 mg/kg, NA: Exposure was too low to be counted
Output should be the measured figure followed by the unit it is expressed in.

Consider the worked cases shown below.
| Molecule | Property measured | Result |
| --- | --- | --- |
| CCN1CCC[C@@H]1/C=C/C(=O)Nc1ccc2ncnc(Nc3ccc(OCc4ccccn4)c(Cl)c3)c2c1OC | Cmax | 95.3 ng/mL |
| CN1CCC[C@H]1/C=C/C(=O)Nc1ccc2ncnc(Nc3ccc(OCc4ccccn4)c(Cl)c3)c2c1 [Control compound 2, reference compound] | Cmax | 6.72 ng/mL |

## Input Identify the reported Cmax for the following entry. CCOc1cc2ncc(C#N)c(Nc3ccc(OCc4ccccn4)c(Cl)c3)c2cc1NC(=O)/C=C/[C@H]1CCCN1C [PYROTINIB, pyrotinib, reference compound]
## Output 246 ng/mL

## Input Identify the reported Cmax for the following entry. COCCCOc1c(NC(=O)/C=C/[C@H]2CCCN2C)ccc2ncnc(Nc3ccc(OCc4ccccn4)c(Cl)c3)c12
## Output 80.3 ng/mL

## Input Identify the reported Cmax for the following entry. COc1c(NC(=O)/C=C/[C@H]2CCCN2C)ccc2ncnc(Nc3ccc(OCc4ccccn4)c(Cl)c3)c12
## Output 65.7 ng/mL

## Input Identify the reported Cmax for the following entry. COc1c(NC(=O)/C=C/[C@H]2CCCN2C(C)C)ccc2ncnc(Nc3ccc(OCc4ccccn4)c(Cl)c3)c12
## Output 86.3 ng/mL

## Input Identify the reported Cmax for the following entry. CCCOc1c(NC(=O)/C=C/[C@H]2CCCN2C)ccc2ncnc(Nc3ccc(OCc4ccccn4)c(Cl)c3)c12
## Output 53.7 ng/mL

###

test: Pharmacokinetics in SD rats, single intravenous injection and oral administration; assay type: in vivo, SD rat; details: SD, rat, whole blood, IV 3 mg/kg
# AUC(0-t) per record follows
Value expressed in ng·h/mL; do not type the unit.

Consider the worked cases shown below.
| Molecule | Property measured | Recorded number |
| --- | --- | --- |
| CCOc1cc2ncc(C#N)c(Nc3ccc(OCc4ccccn4)c(Cl)c3)c2cc1NC(=O)/C=C/[C@H]1CCCN1C [PYROTINIB, pyrotinib, reference compound] | AUC(0-t) | 8310 |
| COc1c(NC(=O)/C=C/[C@H]2CCCN2C)ccc2ncnc(Nc3ccc(OCc4ccccn4)c(Cl)c3)c12 | AUC(0-t) | 968 |
| CN1CCC[C@@H]1/C=C/C(=O)Nc1ccc2ncnc(Nc3ccc(OCc4ccccn4)c(Cl)c3)c2c1 [Control compound 1, reference compound] | AUC(0-t) | 678 |
| CN1CCC[C@H]1/C=C/C(=O)Nc1ccc2ncnc(Nc3ccc(OCc4ccccn4)c(Cl)c3)c2c1 [Control compound 2, reference compound] | AUC(0-t) | 565 |
| CCCOc1c(NC(=O)/C=C/[C@H]2CCCN2C)ccc2ncnc(Nc3ccc(OCc4ccccn4)c(Cl)c3)c12 | AUC(0-t) | 953 |
| CCN1CCC[C@@H]1/C=C/C(=O)Nc1ccc2ncnc(Nc3ccc(OCc4ccccn4)c(Cl)c3)c2c1OC | AUC(0-t) | 914 |

## Input Identify the reported AUC(0-t) for the following entry. COc1c(NC(=O)/C=C/[C@H]2CCCN2C(C)C)ccc2ncnc(Nc3ccc(OCc4ccccn4)c(Cl)c3)c12
## Output 1510

## Input Identify the reported AUC(0-t) for the following entry. COCCCOc1c(NC(=O)/C=C/[C@H]2CCCN2C)ccc2ncnc(Nc3ccc(OCc4ccccn4)c(Cl)c3)c12
## Output 949
